Measured TGI by item
- Test system: SNB-75 CNS
- protocol_description: NCI tumour cell line growth inhibition, 48 h

> print(dat)
                               query.smiles  system.name    result
1  Cc1ccc(/C=C2\Cc3c(C)cc(C)cc3C2=O)c(C(=O)O)c1   SNB-75 CNS  > 100 µM
2  COc1ccc(CN2C3CC2CN(c2ccc(-c4cc(OCC(C)(C)O)cn5ncc(C#N)c45)cn2)C3)cn1   SNB-75 CNS   4.81 µM

Query block: Which value of TGI has been reported for "N#CNC(N)=Nc1ccc(Cl)cc1" in the records?
Result block: > 100 µM

Query block: Lookup "COc1cc(/C=C/C=C2\CC/C(=C\C=C\c3ccc(O)c(OC)c3)C2=O)ccc1O"
Result block: > 100 µM

Query block: Also need "COC(=O)/C(C#N)=C(/NCCN)Nc1ccccc1" , thanks.
Result block: > 100 µM

From: PubChem BioAssay (NCI)
